# Tested System: EGFR L858R/C797S (Homo sapiens, UniProt P00533, C797S/L858R)
# Sequence (P00533 25-1210 C797S/L858R): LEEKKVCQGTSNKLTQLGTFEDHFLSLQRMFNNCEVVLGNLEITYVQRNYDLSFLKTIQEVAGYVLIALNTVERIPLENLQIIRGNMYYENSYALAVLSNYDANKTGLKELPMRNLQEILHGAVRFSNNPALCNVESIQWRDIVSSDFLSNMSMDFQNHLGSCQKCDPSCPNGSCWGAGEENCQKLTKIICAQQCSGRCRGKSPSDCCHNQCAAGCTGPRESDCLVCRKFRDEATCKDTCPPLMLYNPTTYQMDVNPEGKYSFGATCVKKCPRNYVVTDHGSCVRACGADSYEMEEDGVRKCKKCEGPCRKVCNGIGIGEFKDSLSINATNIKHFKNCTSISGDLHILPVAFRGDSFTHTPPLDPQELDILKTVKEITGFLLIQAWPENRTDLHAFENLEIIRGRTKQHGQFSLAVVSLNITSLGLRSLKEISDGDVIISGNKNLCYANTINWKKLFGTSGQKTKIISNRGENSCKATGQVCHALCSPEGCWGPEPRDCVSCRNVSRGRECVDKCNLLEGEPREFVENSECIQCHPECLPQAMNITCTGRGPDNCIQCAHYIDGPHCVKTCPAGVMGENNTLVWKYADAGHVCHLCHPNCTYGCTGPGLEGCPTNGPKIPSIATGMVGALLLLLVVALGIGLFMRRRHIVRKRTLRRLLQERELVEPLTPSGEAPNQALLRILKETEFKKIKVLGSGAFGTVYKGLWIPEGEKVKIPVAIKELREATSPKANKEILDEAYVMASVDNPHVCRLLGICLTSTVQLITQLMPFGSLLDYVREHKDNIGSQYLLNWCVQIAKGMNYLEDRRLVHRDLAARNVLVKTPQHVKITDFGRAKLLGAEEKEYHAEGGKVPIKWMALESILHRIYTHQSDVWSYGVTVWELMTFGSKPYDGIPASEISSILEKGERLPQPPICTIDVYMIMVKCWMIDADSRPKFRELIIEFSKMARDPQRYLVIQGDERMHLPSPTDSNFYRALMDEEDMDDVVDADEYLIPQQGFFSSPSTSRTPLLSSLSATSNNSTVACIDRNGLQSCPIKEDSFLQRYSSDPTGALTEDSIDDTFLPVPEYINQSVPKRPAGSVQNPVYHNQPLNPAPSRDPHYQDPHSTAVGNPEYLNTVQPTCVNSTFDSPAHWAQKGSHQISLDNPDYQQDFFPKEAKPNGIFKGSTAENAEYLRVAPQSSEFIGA
# Test Protocol: Biochemical EGFR kinase inhibition assay (Lance Ultra TR-FRET), double mutant L858R/C797S
# Experimental Parameters: Km ATP; read-out: IC50 L858R/C797S (nM) Km ATP
# Description: Biochemical EGFR kinase assays were conducted using Lance Ultra time-resolved fluorescence resonance energy transfer (TR-FRET) technology from Perkin-Elmer. […] Each kinase reactions were incubated at room temperature for 1 hour and then stopped by the addition of 4 μL of stop solution (10 mM EDTA). […] After 60 minutes incubation at room temperature the LANCE signal was measured on an EnVision Multilabel Reader (Perkin-Elmer). […]
Quantity Name: IC50 (nM)

>>> measured_result("CC(C)Nc1cc(Nc2ccnc(-c3cnn(S(=O)(=O)C4CC4)c3)n2)ncc1C#Cc1cnn(CCF)c1")
20.4
>>> measured_result("Cn1cc(C#Cc2cnc(Nc3ccnc(-c4cnn(S(=O)(=O)C5CC5)c4)n3)cc2N[C@H]2CCC[C@@H](O)C2)cn1")
2.6
>>> measured_result("Cn1cc(C#Cc2cnc(Nc3ccnc(-c4cnn(S(=O)(=O)C5CC5)c4)n3)cc2N2CCC(C)(CO)CC2)cn1")
0.7
>>> measured_result("Cn1cc(C#Cc2cnc(Nc3ccnc(-c4cnn(S(=O)(=O)C5CC5)c4)n3)cc2N[C@@H]2CCC[C@@H](O)C2)cn1")
22.1
>>> measured_result("O=S(=O)(C1CC1)n1cc(-c2nccc(Nc3cc(N4CCC(NCCF)CC4)c(C#Cc4cnn(C5CCOCC5)c4)cn3)n2)cn1")
2.7
>>> measured_result("CC(=O)N1CCC(n2cc(C#Cc3cnc(Nc4ccnc(-c5cnn(S(=O)(=O)C6CC6)c5)n4)cc3N3CCC(F)CC3)cn2)CC1")
2.8
>>> measured_result("Cn1cc(C#Cc2cnc(Nc3ccnc(-c4cnn(S(=O)(=O)C5CC5)c4)n3)cc2NC2CCCCC2)cn1")
143

----------
Entries annotated with measured IC50
# Tested System: EGFR L858R/C797S (Homo sapiens, UniProt P00533, C797S/L858R)
# Test Protocol: Biochemical EGFR kinase inhibition assay (Lance Ultra TR-FRET), double mutant L858R/C797S
# Experimental Parameters: Km ATP; read-out: IC50 L858R/C797S (nM), Km ATP
Quantity Name: IC50 (nM)

>>> measured_result("CS(=O)(=O)N1CCC(C#Cc2cnc(Nc3ccnc(-c4cnn(S(=O)(=O)C5CC5)c4)n3)cc2NC2CCC(O)CC2)C1 (stereo not shown)")
1.6
>>> measured_result("CS(=O)(=O)N1CCC(C#Cc2cnc(Nc3ccnc(-c4cnn(S(=O)(=O)C5CC5)c4)n3)cc2NC2CCC(CO)CC2)C1 (stereo not shown)")
1.5
>>> measured_result("O=S(=O)(C1CC1)n1cc(-c2nccc(Nc3cc(N4[C@@H]5CC[C@H]4C[C@H](CO)C5)c(C#Cc4cnn(C(F)(F)F)c4)cn3)n2)cn1")
845
>>> measured_result("O=S(=O)(C1CC1)n1cc(-c2nccc(Nc3cc(N[C@H]4CC[C@@H](CO)CC4)c(C#Cc4cnn(CC(F)(F)F)c4)cn3)n2)cn1")
10.5
>>> measured_result("O=S(=O)(C1CC1)n1cc(-c2nccc(Nc3cc(N[C@H]4CC[C@@H](O)CC4)c(C#CC4COC4)cn3)n2)cn1")
3.3
>>> measured_result("CN(C)CCC1CCN(c2cc(Nc3ccnc(-c4cnn(S(=O)(=O)C5CC5)c4)n3)ncc2C#Cc2cnn(C(F)(F)F)c2)CC1")
4.3
>>> measured_result("CS(=O)(=O)N1CCC(C#Cc2cnc(Nc3ccnc(-c4cnn(S(=O)(=O)C5CC5)c4)n3)cc2NCC2CCC(CO)CC2)C1 (stereo not shown)")
17.9
>>> measured_result("O=S(=O)(C1CC1)n1cc(-c2nccc(Nc3cc(N[C@H]4CCC[C@H](O)C4)c(C#Cc4cnn(CC(F)(F)F)c4)cn3)n2)cn1")
42.4
>>> measured_result("CC1(CO)CCN(c2cc(Nc3ccnc(-c4cnn(S(=O)(=O)C5CC5)c4)n3)ncc2C#CC2(O)COC2)CC1")
0.8
>>> measured_result("CN1CCN(Cc2ccc(C#Cc3cnc(Nc4ccnc(-c5cnn(S(=O)(=O)C6CC6)c5)n4)cc3N[C@H]3CC[C@]4(CCC(=O)N4)CC3)cc2)CC1")
0.9
>>> measured_result("CC1(O)CCN(c2cc(Nc3ccnc(-c4cnn(S(=O)(=O)C5CC5)c4)n3)ncc2C#CC2(C)CC2)CC1")
2.7
>>> measured_result("CN1CCN(Cc2ccc(C#Cc3cnc(Nc4ccnc(-c5cnn(S(=O)(=O)C6CC6)c5)n4)cc3N[C@H]3CC[C@@H](CO)CC3)cc2)CC1")
2.5
>>> measured_result("CS(=O)(=O)N1CCC(C#Cc2cnc(Nc3ccnc(-c4cnn(S(=O)(=O)C5CC5)c4)n3)cc2NC[C@H]2CC[C@H](CO)CC2)CC1")
38.6
